system: MDA-MB-231; assay: Antitumor activity by MTT assay, MDA-MB-231; settings: Homo sapiens, MDA-MB-231, read-out: Vitamins Alone, Vit C 50% Cytotoxic Dose
readout: IC50 (µM)

{"compound": "O=C1O[C@H]([C@@H](O)CO)C([O-])=C1O.[Na+] [Vitamin C, Sodium Ascorbate]", "tested-on": "MDA-MB-231", "unit-descriptor": "µM", "reported-value": 466}

###

Test system: MDAH 2774 cells
Experiment: Antitumor activity by MTT assay, MDAH 2774
Details: read-out: Vitamins Alone, Vit C 50% Cytotoxic Dose; MDAH, Ovarian
From the text: The FIC index was used to evaluate the synergism of the vitamins. A FIC<1.0 indicates the combination is synergistic, while a FIC>1.0 indicates the combination is antagonistic. A FIC=1.0 indicates the combination is indifferent. […] During this time, two requests for humanitarian intervention were made.

{"compound": "O=C1O[C@H]([C@@H](O)CO)C([O-])=C1O.[Na+] [Vitamin C, Sodium Ascorbate]", "unit-descriptor": "mM", "IC50": 1.52}
